# TEST TARGET: T1, human EGFRvIII protein on the cell surface (human, UniProt P00533 25-1210)
# T1 construct: whole, on cells; the cell line is named under assay; also called hEGFRvIII; U87MG-hEGFRvIII
# TEST PROTOCOL: FACS on CHOk1-EGFRvIII cells
Task for the reader: assign each of the following binders its reported Maximum mean fluorescence intensity.
Response body: numeric value in MFI, unit text excluded.

Query :: Given the binder c75G7C6-1 (antibody, human IgG1, V domains shown, Chimeric 75G7C6 with NG of heavy chain CDR2 mutated to NA; also called c754G7C6-1; mutant chimeric antibody NG/NA) VH: EVQLQQSGPELVKPGASVKIPCKASGYTFTDYNMDWVKQSHGKSLEWIGDINPNNADTIYNQKFKGKATLTVDKSSSTAYMELRSLTSEDTAVYYCARGDYDGYYPVYYAMDYWGQGTSVTVSS VL: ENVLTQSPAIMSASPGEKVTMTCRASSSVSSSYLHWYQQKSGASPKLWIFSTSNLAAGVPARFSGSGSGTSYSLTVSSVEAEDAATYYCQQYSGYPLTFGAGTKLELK , what is its reported Maximum mean fluorescence intensity?
Result :: 110000

Query :: Likewise for c75G7C6-2 (antibody, human IgG1, V domains shown, Chimeric 75G7C6 with NG of heavy chain CDR2 mutated to QG; also called c754G7C6-2; mutant chimeric antibody NG/QG) VH: EVQLQQSGPELVKPGASVKIPCKASGYTFTDYNMDWVKQSHGKSLEWIGDINPNQGDTIYNQKFKGKATLTVDKSSSTAYMELRSLTSEDTAVYYCARGDYDGYYPVYYAMDYWGQGTSVTVSS VL: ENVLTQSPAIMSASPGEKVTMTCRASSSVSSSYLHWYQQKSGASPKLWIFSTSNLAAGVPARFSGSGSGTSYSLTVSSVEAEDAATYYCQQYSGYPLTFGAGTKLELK ?
Result :: 111000

Query :: Here is the next binder: Chimeric antibody 75G7 (antibody, human IgG1, V domains shown, also called c75G7C6; chimeric antibody c75G7C6) VH: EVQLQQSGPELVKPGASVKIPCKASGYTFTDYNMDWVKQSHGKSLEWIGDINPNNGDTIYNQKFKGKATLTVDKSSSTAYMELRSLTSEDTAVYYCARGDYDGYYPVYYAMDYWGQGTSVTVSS VL: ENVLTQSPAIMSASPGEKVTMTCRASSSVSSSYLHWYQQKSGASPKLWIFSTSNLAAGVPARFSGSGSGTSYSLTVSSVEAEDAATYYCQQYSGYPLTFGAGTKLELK
Result :: 112000

Query :: c75G7C6-3 (antibody, human IgG1, V domains shown, Chimeric 75G7C6 with DG of heavy chain CDR3 mutated to EG; Human IgG1/kappa; also called mutant chimeric antibody DG/EG) VH: EVQLQQSGPELVKPGASVKIPCKASGYTFTDYNMDWVKQSHGKSLEWIGDINPNNGDTIYNQKFKGKATLTVDKSSSTAYMELRSLTSEDTAVYYCARGDYEGYYPVYYAMDYWGQGTSVTVSS VL: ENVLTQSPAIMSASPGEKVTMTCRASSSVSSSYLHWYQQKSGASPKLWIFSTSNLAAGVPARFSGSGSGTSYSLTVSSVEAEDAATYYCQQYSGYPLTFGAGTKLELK , same question.
Result :: 94100
